Listed molecules paired with reported inhibition
# assayProtocol: NOD1 signaling inhibitors, primary screen, cell-based, luminescence, uHTS (AID 1578);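 also: HEK-293T reporter cells stimulated with the NOD1 agonist gamma-tri-DAP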
# runParameters: NOD1-driven NF-kB luciferase reporter cells, at 4 µM, active compounds read high
In all, about 290,000 compounds went through this assay and about 3,000 (1%) were called active. For the sample, actives were picked, then their nearest neighbours and some compounds at random.
endpointLabel: inhibition (%)

[
  {
    "cpdSmiles": "CSc1nnc(CNS(=O)(=O)c2ccc(Cl)cc2)n1C",
    "reportedValue": -7.4
  },
  {
    "cpdSmiles": "COc1ccc(-c2c3c(cc(C)[n+]2[O-])oc2ccc(OC)cc23)cc1",
    "reportedValue": -20
  },
  {
    "cpdSmiles": "CCCc1nc2ccccc2c(C(=O)OCC(=O)Nc2cccc(S(=O)(=O)N3CCOCC3)c2)c1CC",
    "reportedValue": 25.8
  },
  {
    "cpdSmiles": "Cc1ccc(-c2nc3[nH]c(=O)cc(NC(=O)c4cccs4)n3n2)cc1",
    "reportedValue": -1.6
  }
]

====

# assayProtocol: NOD1 signaling inhibitors, primary screen, cell-based, luminescence, uHTS (AID 1578);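 also: HEK-293T reporter cells stimulated with the NOD1 agonist gamma-tri-DAP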
# runParameters: NOD1-driven NF-kB luciferase reporter cells, at 4 µM
The campaign covered roughly 290,000 compounds. About 3,000 (1%) were called active. Cut-off read from the data, not from the text of the source: active = inhibition mostly above about 36% (no sharp cut-off); inactive = mostly below about 34%. The sample holds actives, similar compounds and a random draw of the others, so the mix is not that of the screen.
Possible outcomes: active, inactive

[
  {
    "compound": "CC(C)(C)c1ccc(CN2C3=NCCCN3c3ccccc32)cc1",
    "labelClass": "active"
  },
  {
    "compound": "Cn1c(-c2csc(-c3ccccc3)n2)n[nH]c1=S",
    "labelClass": "inactive"
  },
  {
    "compound": "Cc1ccc(C(=O)COC(=O)CCC(=O)Nc2cc(Cl)ccc2Cl)cc1[N+](=O)[O-]",
    "labelClass": "inactive"
  },
  {
    "compound": "CCOc1ccccc1N(C)S(=O)(=O)c1ccc2c(c1)N(C(C)=O)CCO2",
    "labelClass": "inactive"
  },
  {
    "compound": "COc1cc(-c2c(-c3cccc(C)c3)oc3ccccc23)cc(OC)c1OC",
    "labelClass": "inactive"
  },
  {
    "compound": "CC(O)CNc1ncnc2cc(-c3ccc(F)cc3)sc12 (configuration not stated)",
    "labelClass": "inactive"
  },
  {
    "compound": "COc1ccc(N(CC(=O)Nc2ccc3c(c2)OCCO3)S(C)(=O)=O)c(OC)c1",
    "labelClass": "inactive"
  },
  {
    "compound": "Cc1c(C)c2ccc(O[C@@H]3O[C@H](CO)[C@H](O)[C@H](O)[C@H]3O)cc2oc1=O",
    "labelClass": "inactive"
  },
  {
    "compound": "S=C(NCc1ccc(Cl)cc1)NN1CCOCC1",
    "labelClass": "inactive"
  },
  {
    "compound": "Cc1cccc(-c2cc3c(nn2)-c2ccccc2C3=O)c1",
    "labelClass": "inactive"
  },
  {
    "compound": "Cc1ccc(C)c(NC(=O)COC(=O)c2cccc3c2C(=O)c2ccccc2C3=O)c1",
    "labelClass": "inactive"
  },
  {
    "compound": "CCc1oc2ccccc2c1C(=O)c1cc(Br)c(O)c(Br)c1",
    "labelClass": "active"
  },
  {
    "compound": "Oc1ccc(C[C@@H]2CNC(=S)N2CCCCC2CCCCC2)cc1",
    "labelClass": "inactive"
  },
  {
    "compound": "Cc1oc(S(=O)(=O)N2CCOCC2)cc1C(=O)Nc1ccc(Cl)cc1",
    "labelClass": "inactive"
  },
  {
    "compound": "Cn1ccnc1C(=O)c1ccc(N)cc1",
    "labelClass": "inactive"
  },
  {
    "compound": "Cc1csc(=O)n1CC(=O)OCC(=O)Nc1cc(Cl)ccc1[N+](=O)[O-]",
    "labelClass": "inactive"
  },
  {
    "compound": "O=C(Nc1ccc(F)cc1)N(Cc1cccs1)Cc1cc2cc3c(cc2[nH]c1=O)OCO3",
    "labelClass": "inactive"
  },
  {
    "compound": "CCCCCCCN1C2=NCCN2c2ccccc21",
    "labelClass": "active"
  },
  {
    "compound": "COc1ccc(CCNC(=O)CSc2nnc(CNC(=O)c3ccccc3F)o2)cc1OC",
    "labelClass": "inactive"
  },
  {
    "compound": "CCc1oc2ccccc2c1C(=O)CCN1CCCCC1",
    "labelClass": "inactive"
  },
  {
    "compound": "Cc1ccc(Nc2ccccc2N)cc1",
    "labelClass": "active"
  },
  {
    "compound": "Cc1cccc(C)c1OCCNC(=O)c1ccc2ccccc2n1",
    "labelClass": "inactive"
  }
]
